# key: entry, value: normalized RNA/DNA level without ligand (log10)
B1: library; a variant is named by its letters at N, in order (parent)
chain: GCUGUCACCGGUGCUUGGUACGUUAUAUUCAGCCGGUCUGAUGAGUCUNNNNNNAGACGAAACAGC

Variants of: B1
Test: normalized RNA/DNA level without ligand (relative to sTRSVctl = 100) (log10 (% of sTRSVctl)); HEK293T overexpressing SLC46A1; higher = less ribozyme self-cleavage, higher mRNA level
Settings: without (6R,S)-folinic acid; ligand present: no
Just the number, please, no unit attached.

>>> df
   mutation_descriptor  reported_measurement
0               ACCAGG                  1.96
1               AAUGGC                     2
2               AUUCAC                  2.04
3               UAGAAU                  1.92

q: Suppose we examine the variant ACGCAA ; what normalized RNA/DNA level without ligand (log10) value has been reported?
a: 1.99

q: Suppose we examine the variant GUCGCU ; what normalized RNA/DNA level without ligand (log10) value has been reported?
a: 2.05

q: Suppose we examine the variant CGCAGC ; what normalized RNA/DNA level without ligand (log10) value has been reported?
a: 2.01

q: Suppose we examine the variant UUUGGU ; what normalized RNA/DNA level without ligand (log10) value has been reported?
a: 1.95

q: Suppose we examine the variant UGGAAG ; what normalized RNA/DNA level without ligand (log10) value has been reported?
a: 1.65

q: Suppose we examine the variant UCUAGC ; what normalized RNA/DNA level without ligand (log10) value has been reported?
a: 2.03
